tested on: NCI-H23 lung; test: NCI-60 one-dose screen, 48 h (100 = growth as untreated, 0 = no growth, -100 = all killed); conditions: 10 µM unless noted
This is part of a sample that, as a whole, favours compounds with a hit. Of some 83,000 tested, about 20% had one in any assay.
Listing of entries alongside the reported growth.
API: value field is a number in %; no unit string.

Take a look at these entries with their results.
>>> number("Cc1cc[c-]cc1.Fc1c[c-]c(-c2ccccn2)c(F)c1.[Pt+2].c1ccc([PH+](c2ccccc2)c2ccccn2)cc1")
70
>>> number("C=CC[PH+](c1ccccc1)c1ccccc1.C=CC[PH+](c1ccccc1)c1ccccc1.[Pt+2].[S-]c1ncccn1.[S-]c1ncccn1")
36.6

// returns reported growth for input "O=[P+](O)c1cccnc1" 103

Quick one: "C/C(=N/OC(=O)N(C)C)c1ccc(Cl)c(Cl)c1" 98.2

Next up: "COc1ccc(O)c2c(=O)c3c(OC)cc4c(c3oc12)[C@@H]1C=CO[C@@H]1O4" 6.73

Also "CC1=CC(=Nc2ccc(N(CCCl)CCCl)cc2)C=C(C)C1=O" , if possible. 23

Another: "Nc1cccnc1" 109

----------
tested on: UACC-257 melanoma; test: NCI-60 one-dose screen, 48 h (100 = growth as untreated, 0 = no growth, -100 = all killed); conditions: 10 µM unless noted
The panel holds about 83,000 compounds, 20% with a hit somewhere; the sample as a whole holds those more often. Activity calls are given as the source filed them. The calls were made as follows: active = growth percent below 10; inactive = the rest.
growth values by entry

So what's the measured growth for this one? "CC[C@H](C)[C@H](NC(=O)[C@H]1CCCCN1C)C(=O)N(C)[C@H](C(=O)NC12CC(C(=O)N[C@@H](Cc3ccccc3)C[C@H](C)C(=O)OC)(C1)C2)C(C)C" 102% (inactive)

Same read-out for "Cc1cc(NC(=O)NCCCOc2ccc(N3C(N)=NC(N)=NC3(C)C)cc2Cl)ccc1S(=O)(=O)F" ? 25.9% (inactive)

Subsequent entry: "Oc1ccccc1C=NCCN=Cc1ccccc1O" 96.4% (inactive)

Can you handle CC1OC(=O)C(C(C)C)NC(=O)C(C(C)C)OC(=O)C(C(C)C)NC(=O)C(C)OC(=O)C(C(C)C)NC(=O)C(C(C)C)OC(=O)C(C(C)C)NC(=O)C(C)OC(=O)C(C(C)C)NC(=O)C(C(C)C)OC(=O)C(C(C)C)NC1=O (stereo not drawn) next? -53.5% (active)

Quick one: "O=C1CN2CCC1CC2" 109% (inactive)

Again, but for CCCCCCCCCCCCCCCCCC1OCC(COC(=O)O[C@@H](C(=O)O[C@H]2C[C@@]3(O)[C@@H](OC(=O)c4ccccc4)[C@@H]4[C@]5(OC(C)=O)CO[C@@H]5C[C@H](O)[C@@]4(C)C(=O)[C@H](OC(C)=O)C(=C2C)C3(C)C)[C@@H](NC(=O)c2ccccc2)c2ccccc2)O1 (stereo partly drawn) 69.8% (inactive)

CCOC(=O)C1C(C=C(C)C)C1(C)C (stereo not drawn) , same question. 106% (inactive)

Another molecule: "CO[C@H]1[C@H](O[C@@H]2C[C@@H]3C/C=C/C(=O)O[C@@H](CO)C[C@H](O)[C@@H]4C[C@H](C)[C@H](C/C=C\C=C\[C@H](C)C[C@H](C2)O3)O4)O[C@@H](C)[C@H](O)[C@H]1O" 9.72% (active)

Please answer likewise for "CCC1(CCSC#N)C(=O)NC(=O)NC1=O" 98.9% (inactive)

Try this molecule too: "N#CC(C#N)=C(C#N)C#N" 97.8% (inactive)

Lookup O=C1c2ccccc2C(=O)N1N1CC1c1ccccc1 (stereo not drawn) 101% (inactive)

Check "c1ccc2c(c1)sc1ccccc12" too. 109% (inactive)

How about this molecule: CC(=O)C(N)Cc1ccccc1 (stereo not drawn) 73.3% (inactive)

Similarly, COc1cc(C2C3=C(CCCC3=O)N(CCO)c3cc4c(cc32)CCC4)cc(OC)c1OC (stereo not drawn) ? 67.2% (inactive)

Another molecule to look at: "C#COc1cccc(Nc2ncnc3cc(NC(=O)CF)ccc23)c1" 40.4% [6.25 µM] (inactive)

"O=c1c2ccccc2nc(-c2ccccc2Cl)n1-c1nnc(C(F)(F)F)s1" ? 30% (inactive)

Can you check "Cc1cc(N(CCCl)CCCl)ccc1C=Nc1ccc(-c2csc(-c3ccccc3)n2)cc1" next? 86.5% (inactive)

What do we get for "COc1cc(C=C2C(=O)NC(=O)NC2=O)ccc1O" ? 87.6% (inactive)

----------
system: NCI-H23 lung; assay: NCI-60 one-dose screen, 48 h (100 = growth as untreated, 0 = no growth, -100 = all killed); settings: 10 µM unless noted
Compounds without any hit were thinned out: in the full panel of roughly 83,000, 20% have a hit. The source made the active and inactive calls. The calls were made as follows: active = growth percent below 10; inactive = the rest.
outcome.measure: growth

Example results:
>>> result("CNC(=O)CCl")
"101% (inactive)"
>>> result("CC[C@H](C)[C@H](NC(=O)[C@H]1CCCCN1C)C(=O)N(C)[C@H](C[C@@H](OC(C)=O)c1nc(C(=O)NC23C4C5C2C2C3C4C52C(=O)OC)cs1)C(C)C (stereo not given in full)")
"18.6% (inactive)"
>>> result("CN1[C@@H](CC(=O)c2ccccc2)CCC[C@H]1CC(=O)c1ccccc1")
"97.2% (inactive)"
>>> result("O=[N+]([O-])c1cc(Br)c(O)c(Br)c1")
"101% (inactive)"
>>> result("Cc1ccc(NC2=N[C@]34CC(=O)CC[C@]3(C)[C@H]3CC[C@]5(C)C(=O)CC[C@H]5[C@@H]3C[C@@H]4S2)c(C)c1")
"54.2% (inactive)"

For CCCN1C(=O)NC(=O)C(CC)(N2C(=O)c3c(F)c(F)c(F)c(F)c3C2=O)C1=O (stereo not given) , what is its reported growth? -52.1% (active)

And then "COC(=O)[C@@H](C)C[C@H](Cc1ccccc1)NC(=O)c1cccc([C@@H](C[C@H](C(C)C)N(C)C(=O)[C@@H](NC(=O)[C@H]2CCCCN2C)C2CC2)OC(C)=O)n1" , what is it? 21% (inactive)

Another compound to check: "CC1=C([Te]c2ccccc2)C(=O)c2ccccc2C1=O" -33.9% (active)

Can you handle "N#CC(C#N)=C(C#N)C#N" next? 106% (inactive)

Also "Oc1cc(Cl)ccc1Oc1ccc(Cl)cc1Cl" ? 7.13% (active)

----------
tested on: CAKI-1 renal; experiment: NCI-60 one-dose screen, 48 h (100 = growth as untreated, 0 = no growth, -100 = all killed); settings: 10 µM unless noted
About 83,000 compounds went through this panel and 20% of them were active in at least one assay; those are over-represented in the sample as a whole.
outcome.measure: growth (%)
Expressed in %, but write only the number.

As a guide, the following entries are already answered.
>>> number("C=CC1CN2CCC1CC2C(O)c1ccnc2ccccc12 (configuration not stated)")
144
>>> number("CCCCCCCCCCCCCCCCCC1OCC(COC(=O)O[C@@H](C(=O)O[C@H]2C[C@@]3(O)[C@@H](OC(=O)c4ccccc4)[C@@H]4[C@]5(OC(C)=O)CO[C@@H]5C[C@H](O)[C@@]4(C)C(=O)[C@H](OC(C)=O)C(=C2C)C3(C)C)[C@@H](NC(=O)c2ccccc2)c2ccccc2)O1 (some centres not stated)")
82.8
>>> number("CCC1CCC(=O)O1 (configuration not stated)")
104
>>> number("ClCc1ccc(Cl)c(Cl)c1")
109
>>> number("CC(=O)OC1CC2(O)C(CCC3(C)C(c4ccc(=O)oc4)CCC32O)C2(C)CCC(OC3OC(CO)C(O)C(O)C3O)C=C12 (configuration not stated)")
-93.5
>>> number("CC[C@H](C)[C@H](NC(=O)[C@H]1CCCCN1C)C(=O)N(C)[C@H](C[C@@H](OC(C)=O)c1nc(C(=O)NC23C4C5C2C2C3C4C52C(=O)OC)cs1)C(C)C (some centres not stated)")
28.9

Tell me the measured growth of COC(=O)C12C3C4C1C1C2C3C41NC(=O)c1csc([C@@H](C[C@H](C(C)C)N(C)C(=O)[C@@H](NC(=O)[C@H]2CCCCN2C)C2CC2)OC(C)=O)n1 (some centres not stated) , please. 38.1

----------
system: HCT-15 colon; test: NCI-60 one-dose screen, 48 h (100 = growth as untreated, 0 = no growth, -100 = all killed); conditions: 10 µM unless noted
Compounds without any hit were thinned out: in the full panel of roughly 83,000, 20% have a hit.
outcome.measure: growth (%)
Numeric only. Scale: %

Answered examples (4):
>>> number("COC(=O)CCP(CCC(=O)OC)c1ccccc1")
106
>>> number("Nc1nc(=S)nc(N)[nH]1")
101
>>> number("O=[N+]([O-])c1ccc(OCc2ccc(S(=O)(=O)F)c(Cl)c2)c(Cl)c1")
84.6
>>> number("CC[C@H](C)[C@H](NC(=O)C12CC(NC)(C1)C2)C(=O)N(C)[C@H](C[C@@H](OC(C)=O)c1nc(C(=O)N[C@@H](Cc2ccccc2)C[C@H](C)C(=O)OC)cs1)C(C)C")
18.4

Which growth value is on record for CC(=O)C(N)Cc1ccccc1 (stereo not given) ? 103
